Every entry's value here was drawn from patent US20240270826A1.

Could you please report measured IC50 for the items listed next?
targetSystem: Human SARS-CoV-2_Wuhan S (SmT1) (SARS-CoV-2 (Wuhan), UniProt P0DTC2 14-1208)
assayDetails: flow cytometry SVNA: VHH-Fc inhibits S binding to ACE2 on Vero E6 cells
I only need the number, in nM, no unit after it.

Consider the binder NRCoV2-04 VHH-Fc (Fc fusion, bivalent VHH-Fc) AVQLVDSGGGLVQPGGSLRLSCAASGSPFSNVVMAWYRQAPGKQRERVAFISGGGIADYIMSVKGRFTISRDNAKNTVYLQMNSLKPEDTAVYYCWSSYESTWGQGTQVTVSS . State its measured IC50.
10.8

Please supply the value of reported IC50 for the item NRCoV2-1d VHH-Fc (Fc fusion, bivalent VHH-Fc) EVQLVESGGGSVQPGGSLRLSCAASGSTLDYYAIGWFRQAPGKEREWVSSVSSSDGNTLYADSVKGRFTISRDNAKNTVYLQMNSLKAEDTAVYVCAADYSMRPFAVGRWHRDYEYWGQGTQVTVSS
4.7

Query IC50 for NRCoV2-07 VHH-Fc (Fc fusion, bivalent VHH-Fc) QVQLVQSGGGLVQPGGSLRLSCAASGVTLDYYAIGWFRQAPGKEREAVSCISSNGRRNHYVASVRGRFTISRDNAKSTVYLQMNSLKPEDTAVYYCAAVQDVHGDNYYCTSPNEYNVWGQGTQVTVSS
4.7

Write down IC50 measured for item NRCoV2-05 VHH-Fc (Fc fusion, bivalent VHH-Fc) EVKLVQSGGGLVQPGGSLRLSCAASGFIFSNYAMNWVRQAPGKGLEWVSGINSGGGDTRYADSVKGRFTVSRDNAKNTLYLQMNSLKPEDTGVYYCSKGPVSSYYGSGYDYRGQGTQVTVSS
4.9
